Value source: patent US20230110188A1

Target: T1, Mouse MuSK as it stands on mouse muscle (neuromuscular junctions, C2C12 myotubes) (mouse, UniProt Q61006 22-868)
T1 sequence (looked up): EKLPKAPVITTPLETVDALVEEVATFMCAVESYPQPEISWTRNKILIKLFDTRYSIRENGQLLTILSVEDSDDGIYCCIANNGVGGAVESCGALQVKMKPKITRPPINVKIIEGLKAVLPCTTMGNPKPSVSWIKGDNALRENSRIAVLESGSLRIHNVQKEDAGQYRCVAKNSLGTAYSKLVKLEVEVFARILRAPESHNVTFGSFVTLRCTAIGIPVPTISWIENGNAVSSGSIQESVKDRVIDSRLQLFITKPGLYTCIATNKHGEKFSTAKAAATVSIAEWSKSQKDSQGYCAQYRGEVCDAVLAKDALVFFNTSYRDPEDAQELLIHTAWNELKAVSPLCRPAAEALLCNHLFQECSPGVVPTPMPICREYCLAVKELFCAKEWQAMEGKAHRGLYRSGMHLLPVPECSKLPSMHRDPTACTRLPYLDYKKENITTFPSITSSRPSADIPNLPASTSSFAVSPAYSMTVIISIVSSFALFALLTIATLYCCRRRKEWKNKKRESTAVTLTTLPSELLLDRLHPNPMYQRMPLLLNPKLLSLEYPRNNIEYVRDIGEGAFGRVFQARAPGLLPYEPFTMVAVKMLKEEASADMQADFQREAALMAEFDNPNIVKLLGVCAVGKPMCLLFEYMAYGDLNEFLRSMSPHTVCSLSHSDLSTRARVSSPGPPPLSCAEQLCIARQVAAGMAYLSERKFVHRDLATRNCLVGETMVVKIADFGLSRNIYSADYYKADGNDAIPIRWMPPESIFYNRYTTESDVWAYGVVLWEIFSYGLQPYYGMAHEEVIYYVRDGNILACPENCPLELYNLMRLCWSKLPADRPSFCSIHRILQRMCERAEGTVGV
Assay: cell-based or functional assay
RECORDED_ENDPOINT: AChR clusters larger or equal to 3 µm compared to agrin; antibody 110 µg/mL

INSERT INTO assay_data (binder, data_value) VALUES
  ('3F6c (antibody, human IgG1, kappa, L234A L235A, V domains shown) VH: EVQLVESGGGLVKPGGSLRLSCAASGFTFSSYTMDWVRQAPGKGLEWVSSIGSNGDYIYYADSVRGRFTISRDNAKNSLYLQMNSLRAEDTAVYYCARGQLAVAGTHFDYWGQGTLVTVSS VL: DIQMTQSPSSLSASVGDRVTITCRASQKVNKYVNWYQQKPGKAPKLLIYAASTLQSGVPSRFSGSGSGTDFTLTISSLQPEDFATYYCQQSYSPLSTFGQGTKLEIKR', '61 % of agrin'),
  ('3D9b (antibody, human IgG1, kappa, L234A L235A, V domains shown) VH: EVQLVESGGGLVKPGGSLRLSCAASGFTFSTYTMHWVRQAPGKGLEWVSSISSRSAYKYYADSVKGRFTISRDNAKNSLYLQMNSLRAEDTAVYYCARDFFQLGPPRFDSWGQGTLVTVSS VL: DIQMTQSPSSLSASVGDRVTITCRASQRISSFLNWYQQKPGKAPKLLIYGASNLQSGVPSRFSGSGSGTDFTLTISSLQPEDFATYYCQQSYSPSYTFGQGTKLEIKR', '84 % of agrin'),
  ('4D3 (antibody, human IgG1, kappa, L234A L235A, V domains shown) VH: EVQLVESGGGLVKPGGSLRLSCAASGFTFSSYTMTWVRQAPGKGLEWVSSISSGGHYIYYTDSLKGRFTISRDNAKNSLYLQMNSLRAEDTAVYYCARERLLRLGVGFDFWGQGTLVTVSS VL: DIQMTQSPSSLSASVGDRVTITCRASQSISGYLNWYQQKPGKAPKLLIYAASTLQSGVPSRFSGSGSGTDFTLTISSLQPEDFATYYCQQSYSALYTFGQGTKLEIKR', '75 % of agrin'),
  ('3D10a (antibody, human IgG1, kappa, L234A L235A, V domains shown) VH: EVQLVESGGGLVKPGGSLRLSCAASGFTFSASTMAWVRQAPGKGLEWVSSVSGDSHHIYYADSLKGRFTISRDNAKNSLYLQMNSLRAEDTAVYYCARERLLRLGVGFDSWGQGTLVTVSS VL: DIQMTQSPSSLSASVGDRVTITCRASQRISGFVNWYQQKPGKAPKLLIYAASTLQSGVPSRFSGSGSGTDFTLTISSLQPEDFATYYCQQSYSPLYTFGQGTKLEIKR', '73 % of agrin');
